Data origin: patent US12221432B2

Kindly supply the reported Tmax values for the records listed here.
experiment: Pharmacokinetics study in rats (cassette); format: in vivo; conditions: female, SD, plasma, po; rat cassette PK, p.o. 2 mg/kg
Structures can show the parent of a compound that is named as a salt.
Field: numeric (h). Do not append units.

Ask: Give Tmax for the following molecule: CC/C(=C(/c1ccc(OCCNC/C=C/C(=O)N(C)C)nc1)c1[nH]c2ccccc2c1Cl)c1cccc(OC)c1 [Compound 4 monohydrochloride]
Result: 2

Ask: Recall and state the measured Tmax for CC/C(=C(/c1ccc(OCCNC/C=C/C(=O)N(C)C)nc1)c1[nH]c2ccccc2c1Cl)c1ccccc1 [Compound 3 monohydrochloride] .
Result: 2
